biological target: Histamine H2 receptor (Cavia porcellus) (UniProt P47747); assay: Potency at H2 receptor compared to histamine from mean pD2 value in right atrium of guinea pig; assay type: functional, tissue-based; details: Cardiac atrium
Sequence (P47747 whole entry): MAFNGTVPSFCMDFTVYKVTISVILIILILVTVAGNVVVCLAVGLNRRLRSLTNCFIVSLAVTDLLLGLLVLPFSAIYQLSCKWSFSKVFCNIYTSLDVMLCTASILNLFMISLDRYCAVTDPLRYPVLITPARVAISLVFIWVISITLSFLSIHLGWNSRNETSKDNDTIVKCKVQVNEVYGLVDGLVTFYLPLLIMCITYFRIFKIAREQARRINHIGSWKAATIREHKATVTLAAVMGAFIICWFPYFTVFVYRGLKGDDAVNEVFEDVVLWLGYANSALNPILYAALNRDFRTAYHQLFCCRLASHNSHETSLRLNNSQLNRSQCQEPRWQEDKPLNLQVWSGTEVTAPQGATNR
Reported Metric: Relative potency

Some solved cases for reference:
Compound	Relative potency
N=C(NCCCc1c[nH]cn1)NCCC(c1ccccn1)c1ccccc1Cl (centres undefined)	22.4
N=C(NCCCc1c[nH]cn1)NCCC(c1ccccc1)c1ccc(Cl)cc1 (centres undefined)	13.2

a. N=C(NCCCc1c[nH]cn1)NCCC(c1ccncc1)c1ccc(F)cc1 (centres undefined)
b. N=C(NCCCc1c[nH]cn1)NCCC(c1ccc(F)c(F)c1)c1ccccn1 (centres undefined)
Request: // compare: a vs b , metric Relative potency, want the smaller Select an item and report its label.
Response: a
(a: 42.7, b: 132)
